Data provenance: PubChem BioAssay (NCI)

Entries and their growth
- Test system: K-562 leukemia
- MEASUREMENT_DESCRIPTION: NCI-60 one-dose screen, 48 h (100 = growth as untreated, 0 = no growth, -100 = all killed)
- ASSAY_CONTEXT: 10 µM
The panel holds about 83,000 compounds, 20% with a hit somewhere; the sample as a whole holds those more often. Activity calls are given as the source filed them. How the source made its calls: active means growth percent below 10; inactive means the rest.

[
  {
    "MOLECULE": "O=C(/C=C/c1ccccc1)c1nc2ccccc2n1Cc1ccc(F)cc1",
    "growth": "-8.55% (active)"
  },
  {
    "MOLECULE": "CC[C@]12C=CCN3CC[C@@]4(c5ccc(OC)cc5N(C)[C@H]4[C@@](O)(C(=O)OC)[C@@H]1OC(=O)CCC[P+](C1CCCCC1)(C1CCCCC1)C1CCCCC1)[C@@H]32",
    "growth": "3.31% (active)"
  },
  {
    "MOLECULE": "C[C@H]1[C@H](OC(=O)CCC(=O)N(CCCc2cn(-c3ccc(C#N)cc3)nn2)CCNc2ccnc3cc(Cl)ccc23)O[C@@H]2OC3(C)CC[C@H]4[C@H](C)CC[C@@H]1[C@@]24OO3",
    "growth": "6.77% (active)"
  }
]

* * *

- Tested on: SK-OV-3 ovarian
- MEASUREMENT_DESCRIPTION: NCI-60 one-dose screen, 48 h (100 = growth as untreated, 0 = no growth, -100 = all killed)
- ASSAY_CONTEXT: 10 µM
The panel holds about 83,000 compounds, 20% with a hit somewhere; the sample as a whole holds those more often.

[
  {
    "COMPOUND": "CC12OOC(C)(OO1)C2CCC(=O)NCCNc1ccnc2cc(Cl)ccc12 (stereo not given)",
    "growth (%)": 91.2
  },
  {
    "COMPOUND": "COc1ccc2cc([C@H](C)C(=O)[Se]CCC#N)ccc2c1",
    "growth (%)": -70.6
  },
  {
    "COMPOUND": "C[C@H]1[C@H](OC(=O)CCC(=O)N(CCCc2cn(-c3ccc(CN4CCOCC4)cc3)nn2)CCNc2ccnc3cc(Cl)ccc23)O[C@@H]2OC3(C)CC[C@H]4[C@H](C)CC[C@@H]1[C@@]24OO3",
    "growth (%)": 74.2
  },
  {
    "COMPOUND": "COc1cc2cc(C(=O)N3C[C@@H](CCl)c4c3cc(OC(=O)N3CCN(C)[C@@H]5CSSC[C@@H]53)c3ccccc43)[nH]c2c(OC)c1OC",
    "growth (%)": -6.59
  },
  {
    "COMPOUND": "C[C@H]1[C@H](OC(=O)CCC(=O)Nc2cnccn2)O[C@@H]2OC3(C)CC[C@H]4[C@H](C)CC[C@@H]1[C@@]24OO3",
    "growth (%)": 77.4
  },
  {
    "COMPOUND": "COCCOCCOCCOc1ccc(-n2cc(CCCN(CCNc3ccnc4cc(Cl)ccc34)C(=O)CCC(=O)O[C@@H]3O[C@@H]4OC5(C)CC[C@H]6[C@H](C)CC[C@@H]([C@H]3C)[C@@]46OO5)nn2)cc1",
    "growth (%)": 76.1
  },
  {
    "COMPOUND": "CC12CCC3(CCC(=O)NCCCNc4ccnc5cc(Cl)ccc45)[C@@](C)(OO[C@]3(C)O1)O2",
    "growth (%)": 13.1
  },
  {
    "COMPOUND": "O=C(NC([Se])=NC1CCCCC1)c1ccc2c(c1)OCO2",
    "growth (%)": 8.53
  },
  {
    "COMPOUND": "O=C(/C=C/c1ccc(F)cc1)c1nc2ccccc2n1Cc1ccc(Br)cc1",
    "growth (%)": 30.2
  },
  {
    "COMPOUND": "O=C(/C=C/c1ccccc1)c1nc2ccccc2n1Cc1ccc(Br)cc1",
    "growth (%)": 28.7
  },
  {
    "COMPOUND": "COC(=O)C[C@](O)(CCC(C)C)C(=O)O[C@@H]1C(OC)=C[C@]23CCCN2CCc2cc4c(cc2[C@H]13)OCO4",
    "growth (%)": -25.6
  },
  {
    "COMPOUND": "CC[C@]12C=CCN3CC[C@@]4(c5ccc(OC)cc5N(C)[C@H]4[C@@](O)(C(=O)OC)[C@@H]1OC(=O)CCCC[P+](c1ccc(OC)cc1)(c1ccc(OC)cc1)c1ccc(OC)cc1)[C@@H]32",
    "growth (%)": -82.5
  },
  {
    "COMPOUND": "COc1ccc(OC)c(/C=C/C(=O)c2nc3ccccc3n2Cc2ccc(F)cc2)c1",
    "growth (%)": 50.2
  },
  {
    "COMPOUND": "CC(C)N=C([Se])NC(=O)c1ccccc1",
    "growth (%)": -57.2
  },
  {
    "COMPOUND": "CC(C)N=C([Se])NC(=O)c1cccs1",
    "growth (%)": -17.3
  }
]

* * *

- Test system: SNB-75 CNS
- MEASUREMENT_DESCRIPTION: NCI-60 one-dose screen, 48 h (100 = growth as untreated, 0 = no growth, -100 = all killed)
- ASSAY_CONTEXT: 10 µM
This is part of a sample that, as a whole, favours compounds with a hit. Of some 83,000 tested, about 20% had one in any assay. Active and inactive are the calls of the source. How the source made its calls: active means growth percent below 10; inactive means the rest.

[
  {
    "MOLECULE": "COc1cc2cc(C(=O)N3C[C@@H](CCl)c4c3cc(OC(=O)N3CCN(C(=O)CCC(=O)N5CCN(C)CC5)[C@@H]5CSSC[C@@H]53)c3ccccc43)[nH]c2c(OC)c1OC",
    "growth": "-90.1% (active)"
  },
  {
    "MOLECULE": "O=C(/C=C/c1ccccc1)c1nc2ccccc2n1Cc1ccc(F)cc1",
    "growth": "3.39% (active)"
  },
  {
    "MOLECULE": "C[C@H]1[C@@H](Oc2ccc(-c3cn(-c4ccnc5cc(Cl)ccc45)nn3)cc2)O[C@@H]2OC3(C)CC[C@H]4[C@H](C)CC[C@@H]1[C@@]24OO3",
    "growth": "61.6% (inactive)"
  },
  {
    "MOLECULE": "C#CC[Se]C(=O)c1ccc2n[se]nc2c1",
    "growth": "56.5% (inactive)"
  }
]

* * *

Entries and their growth
- Test system: MDA-MB-468 breast
- MEASUREMENT_DESCRIPTION: NCI-60 one-dose screen, 48 h (100 = growth as untreated, 0 = no growth, -100 = all killed)
- ASSAY_CONTEXT: 10 µM unless noted
About 83,000 compounds went through this panel and 20% of them were active in at least one assay; those are over-represented in the sample as a whole.
MEASUREMENT_TYPE: growth (%)

[
  {
    "COMPOUND": "CCC(C)[C@H]1O[C@]2(C=C[C@@H]1C)C[C@@H]1C[C@@H](C/C=C(\\C)[C@@H](OC3C[C@H](OC)C(O[C@H]4C[C@H](OC)[C@@H](O)[C@H](C)O4)[C@H](C)O3)[C@@H](C)/C=C/C=C3\\CO[C@@H]4[C@H](O)C(C)=C[C@@H](C(=O)O1)[C@]34O)O2 (stereo not given in full)",
    "UNIT_OF_MEASURE": "%",
    "READOUT_NUMBER": -12.7
  },
  {
    "COMPOUND": "CC1(C)C2CCC1(CS(=O)(=O)O)C(=O)C2 (stereo not given)",
    "UNIT_OF_MEASURE": "%",
    "READOUT_NUMBER": 123
  },
  {
    "COMPOUND": "CC1COC(=O)C1 (stereo not given)",
    "UNIT_OF_MEASURE": "%",
    "READOUT_NUMBER": 106
  },
  {
    "COMPOUND": "COc1cc2c(cc1OC)[C@@H]1N(CC2)C(=O)c2ccccc2[C@@]1(C)C(=O)O",
    "UNIT_OF_MEASURE": "%",
    "READOUT_NUMBER": 103
  },
  {
    "COMPOUND": "CC(C)(C)N1CC1C#N (stereo not given)",
    "UNIT_OF_MEASURE": "%",
    "READOUT_NUMBER": 97
  },
  {
    "COMPOUND": "[Cl][Hg][c]1cc[c]([Hg][Cl])o1",
    "UNIT_OF_MEASURE": "%",
    "READOUT_NUMBER": -0.231
  },
  {
    "COMPOUND": "Cc1cc(N(CCCl)CCCl)ccc1C=Nc1ccc(-c2csc(Cc3ccccc3)n2)cc1",
    "UNIT_OF_MEASURE": "%",
    "READOUT_NUMBER": 39.3
  },
  {
    "COMPOUND": "Cn1cc(C=O)c2nccnc21",
    "UNIT_OF_MEASURE": "%",
    "READOUT_NUMBER": 98.1
  },
  {
    "COMPOUND": "NC(=O)c1cc([N+](=O)[O-])c(Cl)c([N+](=O)[O-])c1",
    "UNIT_OF_MEASURE": "%",
    "READOUT_NUMBER": 19.8
  },
  {
    "COMPOUND": "O=C1C2C(C(=O)[N]1[Hg][c]1cccs1)C1(Cl)C(Cl)=C(Cl)C2(Cl)C1(Cl)Cl (stereo not given)",
    "UNIT_OF_MEASURE": "%",
    "READOUT_NUMBER": -83.7
  },
  {
    "COMPOUND": "COc1cccc2c1c(C(=O)c1ccco1)cn2Cc1ccc(F)cc1",
    "UNIT_OF_MEASURE": "%",
    "READOUT_NUMBER": 103
  },
  {
    "COMPOUND": "CC1(C)N=C(N)N=C(N)N1c1ccc(CNC(=O)Nc2ccc(S(=O)(=O)F)c(Cl)c2)c(Cl)c1",
    "UNIT_OF_MEASURE": "%",
    "READOUT_NUMBER": 30.2
  },
  {
    "COMPOUND": "CCOC(=O)N[C@H]1CCc2c(Br)c(OC)c(OC)c(OC)c2-c2ccc(SC)c(=O)cc21",
    "UNIT_OF_MEASURE": "%",
    "READOUT_NUMBER": -14.7
  },
  {
    "COMPOUND": "C[C@H]1[C@H](OC(=O)CCC(=O)N(CCCc2cn(-c3ccc([N+](=O)[O-])cc3)nn2)CCNc2ccnc3cc(Cl)ccc23)O[C@@H]2OC3(C)CC[C@H]4[C@H](C)CC[C@@H]1[C@@]24OO3",
    "UNIT_OF_MEASURE": "%",
    "READOUT_NUMBER": 31.2
  },
  {
    "COMPOUND": "O=P1(N(CCCl)CCCl)NCCCO1 (stereo not given)",
    "UNIT_OF_MEASURE": "%",
    "READOUT_NUMBER": 108
  },
  {
    "COMPOUND": "O=C/C=C/c1ccco1",
    "UNIT_OF_MEASURE": "%",
    "READOUT_NUMBER": 106
  },
  {
    "COMPOUND": "CC12OOC(C)(OO1)C2CCC(=O)OCCNc1ccnc2cc(Cl)ccc12 (stereo not given)",
    "UNIT_OF_MEASURE": "%",
    "READOUT_NUMBER": -51.6
  },
  {
    "COMPOUND": "COc1cc2ncnc(Nc3ccc(F)c(Cl)c3)c2cc1OCC(=O)N1CCN(C)CC1",
    "UNIT_OF_MEASURE": "%",
    "READOUT_NUMBER": -32.4
  },
  {
    "COMPOUND": "Clc1cccc(Cl)c1Cl",
    "UNIT_OF_MEASURE": "%",
    "READOUT_NUMBER": 107
  },
  {
    "COMPOUND": "CC1=C(SCCC(=O)OCC(=O)NCCC[Te]c2ccccc2)C(=O)c2ccccc2C1=O",
    "UNIT_OF_MEASURE": "%",
    "READOUT_NUMBER": 9.39
  }
]
